Read-out: Human Leukocyte Antigen - DR isotype (HLADR), HLA-DRA (gene 3122)
ASSAY DETAILS: BSK_BE3C_HLADR: BioMAP Diversity Plus: BE3C Assay for Human Leukocyte Antigen - DR isotype (HLADR) Biomarker Activity (AID 2283032)
CONDITION DETAILS: primary human bronchial epithelial cells; actives raise or lower the signal
Calls of active or inactive are those of the source. Rule for the calls: active = hit-call score of the fitted dose curve at least 0.9, where 1 is the maximum; inactive = score below 0.9.
API: response.call in active, inactive

Ask: Assay result, entry CCC12COCN1COC2 — outcome?
Result: inactive

Ask: Assay result, entry CNC(=O)Oc1cccc2c1OC(C)(C)C2 — outcome?
Result: inactive

Ask: Assay result, entry CC(C)(C)OOC(C)(C)CCC(C)(C)OOC(C)(C)C — outcome?
Result: inactive

Ask: Assay result, entry CC(C)(OOC(C)(C)c1ccccc1)c1ccccc1 — outcome?
Result: active

Ask: Assay result, entry Cc1ccc([N+](=O)[O-])cc1 — outcome?
Result: inactive

Ask: Assay result, entry CC(C)(O)c1cnn2c(-c3ccc(F)c(-c4c(F)cccc4C#N)c3)cnc2n1 — outcome?
Result: active

Ask: Assay result, entry c1ccc2c(c1)oc1ccccc12 — outcome?
Result: inactive

Ask: Assay result, entry [Cl-].[Cl-].[Hg+2] — outcome?
Result: active

Ask: Assay result, entry Cc1ccc(N)cc1 — outcome?
Result: inactive

Ask: Assay result, entry O=C(Oc1ccc(Br)cc1)N1CCN2CCC1CC2 — outcome?
Result: inactive

Ask: Assay result, entry CCOC(=O)[C@]1(c2ccccc2)Oc2ccccc2[C@@H]1N — outcome?
Result: active

Ask: Assay result, entry OCCCl — outcome?
Result: inactive

Ask: Assay result, entry COc1cc(C=O)cc2c1[C@H](COC(N)=O)[C@]1(OC(C)=O)ON2C[C@H]2[C@@H]1N2C(C)=O — outcome?
Result: active
